target: T1, cynomolgus monkey IL-6 (cynomolgus monkey, UniProt P79341 28-212, limits assumed); experiment: SPR; purified Fab
T1 construct: also called HIS-cyIL-6
readout-label: koff (s⁻¹)
Field: numeric (s⁻¹). Do not append units.

Qu. I'd like to know its koff. The binder in question is Fab 42H1/36A1 (Fab, V domains shown, VL-shuffled Fab of 18C11) VH: EVQLVESGGGLVQPGGSLRLSCAASGFTFSSYAMSWVRQAPGKGLEWVSAINSGGGSTSYADSVKGRFTISRDNAKNTLYLQMNSLKPEDTAVYYCAKEGDTGWKDPMYDYWGQGTQVTVSS VL: AQSALTQPSALSVTLGQTAKITCQGGSLGTRYAHWYQQKPGQAPVLVIYDDDSRPSGIPERFSGSSSGGRATLTISGAQAEDEGDYYCQSADSSGNASVFGGGTHLTVLG
Ans. 0.00015
